- ASSAYED_TARGET: Retinoic acid receptor beta (Homo sapiens)
- Sequence (P10826 whole entry): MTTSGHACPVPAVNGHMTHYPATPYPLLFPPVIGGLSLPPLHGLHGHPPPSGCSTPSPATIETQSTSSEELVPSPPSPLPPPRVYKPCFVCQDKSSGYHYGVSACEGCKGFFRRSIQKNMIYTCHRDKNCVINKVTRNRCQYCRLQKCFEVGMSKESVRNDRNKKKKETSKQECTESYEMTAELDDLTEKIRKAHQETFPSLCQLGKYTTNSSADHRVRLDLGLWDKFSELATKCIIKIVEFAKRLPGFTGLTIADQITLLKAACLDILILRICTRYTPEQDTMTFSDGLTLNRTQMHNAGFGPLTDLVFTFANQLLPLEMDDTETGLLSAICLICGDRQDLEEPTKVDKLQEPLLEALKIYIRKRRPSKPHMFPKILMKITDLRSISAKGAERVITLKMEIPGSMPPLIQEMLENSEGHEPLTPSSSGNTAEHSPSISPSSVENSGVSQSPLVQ
PARAMETER_MEASURED: Kd (nM)
Response body: numeric value in nM, unit text excluded.

Measured Kd, CC1(C)CCC(C)(C)c2cc(/C(=N/NS(C)(=O)=O)c3ccc4cc(C(=O)O)ccc4c3)ccc21 : 1270

###

- ASSAYED_TARGET: Retinoic acid receptor alpha (Homo sapiens, UniProt P10276)
- Sequence (P10276 whole entry): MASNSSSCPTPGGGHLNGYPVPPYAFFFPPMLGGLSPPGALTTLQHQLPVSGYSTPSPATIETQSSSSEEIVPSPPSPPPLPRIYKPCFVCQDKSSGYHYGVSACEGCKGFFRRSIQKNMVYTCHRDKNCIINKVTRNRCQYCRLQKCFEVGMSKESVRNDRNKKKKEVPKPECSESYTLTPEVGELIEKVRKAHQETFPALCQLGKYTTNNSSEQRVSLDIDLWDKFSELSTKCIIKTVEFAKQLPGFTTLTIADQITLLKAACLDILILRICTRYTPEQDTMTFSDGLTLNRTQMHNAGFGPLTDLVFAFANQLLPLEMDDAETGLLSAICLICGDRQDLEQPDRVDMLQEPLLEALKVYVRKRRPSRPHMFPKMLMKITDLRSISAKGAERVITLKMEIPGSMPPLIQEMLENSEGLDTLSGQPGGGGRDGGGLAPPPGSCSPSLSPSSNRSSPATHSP
- TEST_DETAILS: Apparent binding constant against Retinoic acid receptor alpha in HeLa cell GAl-4 transactivation assay
PARAMETER_MEASURED: Kd (µM)
Give the value in µM but do not write µM after it.

The recorded Kd for CC1(C)CCC(C)(C)c2cc(/C(=N/NS(C)(=O)=O)c3ccc4cc(C(=O)O)ccc4c3)ccc21 is 11
